Biological target: T1, MICA002-ECD-HISAvi (human, UniProt Q29983 24-308)
T1 construct: also called MICA002 polypeptide
T1 chain: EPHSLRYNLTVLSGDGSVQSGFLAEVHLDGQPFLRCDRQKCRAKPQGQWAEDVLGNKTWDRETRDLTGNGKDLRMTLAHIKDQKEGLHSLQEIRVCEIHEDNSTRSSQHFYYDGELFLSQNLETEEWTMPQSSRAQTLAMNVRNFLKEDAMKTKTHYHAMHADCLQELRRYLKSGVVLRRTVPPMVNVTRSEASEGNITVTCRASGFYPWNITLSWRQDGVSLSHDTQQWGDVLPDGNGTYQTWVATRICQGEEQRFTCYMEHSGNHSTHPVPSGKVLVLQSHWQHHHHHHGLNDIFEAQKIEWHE
Assay: SPR (Carterra); antibody captured by anti-human Fc, monomeric ECD antigen injected;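 also: dissociation phase followed for about 10 min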
Kindly state pKd for each of the entries shown.
Would you please state pKd, meaning minus log10 of the concentration in mol/L, as a bare number?

Request: Find the recorded pKd belonging to 13A9 (antibody, human IgG1, kappa, V domains shown) VH: QVQLQQSGAELVRPGTSVKVSCKASGYAFTNYLIEWVKQRPGQGLEWIGAINPGSGATNYNEKFKDKARLTADKSSNTAYLQFSSLTSDDSAVYFCARFLGNYFDNWGQGATLTVSS VL: DIQMTQSPASLSASVGETVTITCRASGNIHSYLAWYQQKQGKSPQLLVYYAETLADGVPSRFSGRGSGTQYSLKINSLQPEDFGSYFCQQFWTTPYTFGGGTKVEIKR and report it.
Result: 8.78

Request: Return reported pKd; argument: 3F9 (antibody, human IgG1, kappa, V domains shown, also called benchmark 3F9) VH: QVQLVESGGGLVKPGGSLRLSCAASGFTFSNYAMSWIRQAPGKGLEWVSYISPGGDYIYYADSVKGRFTISRDNAKNSLYLQMNSLRAEDTAVYYCTTDRRHYGSYAMDYWGQGTLVTVSS VL: DIVMTQSPLSLPVTPGEPASISCRSSKSLLHSNLNTYLYWFLQKPGQSPQILIYRMSNLASGVPDRFSGSGSGTAFTLKISRVEAEDVGVYYCMQHLEYPFTFGPGTKLEIKR
Result: 8.25

Request: GET /values?readout=pKd&item= 1D5 (antibody, human IgG1, kappa, V domains shown, also called ID5) VH: EIQLQQSGPELVKPGASVKVSCKASGYAFTSQNIYWVKQSHGKSLEWIGYIEPYNVVPMYNPKFKGKATLTVDKSSSSAYIHLNSLTSEDSAIYYCARSGSSNFDYWGQGTTLTVSS VL: EIILTQSPTTMAASPGEKITITCSASSSISSHYLHWYQQKSGFSPKLLIYRTSNLASGVPARFSGSGSGTSYSLTIGTMEAEDVATYYCQQGSSLPLTFGAGTKVEIKR
Result: 9.33

Request: Any idea what pKd was measured for #38 (antibody, human IgG1, V domains shown, also called PL114H02; Hit ID 38) VH: QVQLQQSGAELARPGASVKLSCKASGYTFSIHWMQWVKQRPGQGLEWIGAIYPGNGDTKYTQKFKGKATLTADKSSSTAYMQLSNLASEDSAVYYCATLYGNYEAYWGQGTLVTVSA VL: DIVLTQSPASLSASVGETVTITCGASENIYGALNWYQRKQGKSPQLLIYGTTNLADGMSSRFSGSGSGRQYSLKISSLHPDDVATYYCQNVLTTPPWTFGGGTKLEIK ?
Result: 8.60
